# assay details: reduced mouse 2C T cell binding to pMHC/ICAM-1 vesicles – MLPCN validation set, flow cytometry, LFA-1/ICAM-1 modulator project, pilot screen (AID 2523)
# conditions used: 2C mouse CD8+ T cells, at 7 µM, stronger effect = lower value; measured here: CD8+/vesicle+ event percentage
So basically, if double positive events comes in under 60% it's fulfilled, and if it's 60% or more it's not fulfilled.

Worked examples, 8 compounds total:
compound="COc1cccc(CN2C(=O)N(C(C)C)C(N(O)C(=O)NC(C)C)C2(C)C)c1OC (stereo unspecified)" assigned_label="not fulfilled"
compound="OCCOCCN1CCN(C(c2ccccc2)c2ccc(Cl)cc2)CC1 (stereo unspecified)" assigned_label="not fulfilled"
compound="CC(NC(=O)c1ccc(N2CCNCC2)c([N+](=O)[O-])c1)C12CC3CC(CC(C3)C1)C2 (stereo unspecified)" assigned_label=fulfilled
compound=COc1ccc(NC(=O)Nc2ccc(C(C)C)cc2)cc1 assigned_label=fulfilled
compound=O=C(CN1CCN(Cc2ccccc2)CC1)N1CCCc2c1c(=O)oc1ccc(O)cc21 assigned_label=fulfilled
compound=COc1cc(C(=O)Nc2cccc(-c3nnc(-c4ccco4)o3)c2)ccc1OC(C)=O assigned_label=fulfilled
compound=Cn1cc(/C=C/C(=O)c2ccccc2)c2ccccc21 assigned_label=fulfilled
compound="CC(=O)N1CCn2c3c(c4cc(C)ccc42)CCCC31 (stereo unspecified)" assigned_label="not fulfilled"

Query: Take the compound COc1ccc(CCNc2ncnc3c2[nH]c2cc(OC)c(OC)cc23)cc1OC and say whether its double positive events is less than 60%.
Response: not fulfilled

Query: Next compound up: O=C1CCc2cc(OCCCCc3nnnn3C3CCCCC3)ccc2N1
Response: not fulfilled

Query: Repeat with N/C(=N\OC(=O)/C=C/c1ccccc1)c1ccc(Br)cc1
Response: not fulfilled

###

# measured on: Guanine nucleotide-binding protein G(o) subunit alpha (Homo sapiens)
# assay details: retest of RGS8-Galphao interaction hits – biochemical, multiplexed bead flow cytometry, single concentration, confirmation (AID 1836);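 also: Galphao activated as GDP AlF4 complex before binding bead RGS8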
# conditions used: bead-based flow cytometry RGS8-Galphao binding, fluorescence; at 10 µM; actives lie on both sides
This is one part of the list.
The compounds listed here are annotated with their binding response (% of control).
Dear colleague, please return just the value in %, with no unit written.

Query: Checklist item: binding response (% of control) tested on Guanine nucleotide-binding protein G(o) subunit alpha (Homo sapiens), entry O=C(OCC1O[C@@H](OC(=O)c2cc(O)c(O)c(O)c2)[C@@H](OC(=O)c2cc(O)c(O)c(O)c2)[C@@H](OC(=O)c2cc(O)c(O)c(O)c2)[C@@H]1OC(=O)c1cc(O)c(O)c(O)c1)c1cc(O)c(O)c(O)c1 (some centres undefined) , value?
Response: 35.2

Query: Input COc1ccccc1NC(=O)CCCc1c[nH]c2ccccc12
Response: 95.7

Query: Next compound up: Cc1ncoc1C(=O)NCCC(c1ccccc1)c1ccccc1
Response: 101

Query: Request: NC(=O)Cc1ccc2sc(-c3ccccc3)nc2c1
Response: 98.7

Query: Now the same for Cc1cc2nc(C)n(CCCNC(=O)Nc3ccccc3)c2cc1C
Response: 102

Query: Input COc1cc(C2/C(=C(\O)c3ccc4c(c3)CC(C)O4)C(=O)C(=O)N2Cc2ccco2)ccc1O (centres undefined)
Response: 106

Query: Another compound to check: Cc1ccc(S(=O)(=O)NCC(=O)OCC(=O)N2CCc3ccccc32)cc1
Response: 102

Query: Item: CC1(C)C=C2[C@H]3CC[C@@H]4[C@@]5(C)CCC(=O)C(C)(C)[C@@H]5CC[C@@]4(C)[C@]3(C)CC[C@@]2(C(=O)O)CC1
Response: 107

Query: Likewise for Oc1ccc(N=Nc2nccs2)c(O)c1 ?
Response: 99

###

# assay details: cytosolic pH regulators acting via V-ATPase – S. cerevisiae, pHLuorin, HTS validation (AID 504600);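 also: plate controls were DMSO for no effect and reference compound for full effect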
# conditions used: V-ATPase proton transport, at 10 µM, stronger effect = higher value
Calls of active or inactive are those of the source. No stated cut-off is given here; in the data, active means response above about 15%; inactive means the rest.
property: response

Past entries and their recorded results:
molecule="CC1(C)CC(CNCCC(c2ccc(F)cc2)c2ccco2)CCO1 (configuration not stated)" obs_value="5.44% (inactive)"
molecule=Clc1ccc2c(c1)CCc1cccnc1C2=C1CCNCC1 obs_value="1.57% (inactive)"
molecule="O=C(O)C1CSC(c2ccc3c(c2)OCO3)N1 (configuration not stated)" obs_value="0.02% (inactive)"
molecule="CC12CN3CC(C)(CN(C1)C3c1ccc(Cl)cc1Cl)C2=O (configuration not stated)" obs_value="-0.6% (inactive)"
molecule="CC(=O)C1=C(O)C(=O)N(Cc2cccnc2)C1c1ccc(C(C)C)cc1 (configuration not stated)" obs_value="2.79% (inactive)"

Query: Query (molecule): CC[C@]1(O)CC2CN(CCc3c([nH]c4ccccc34)[C@@](C(=O)OC)(c3cc4c(cc3OC)N(C=O)[C@H]3[C@@](O)(C(=O)OC)[C@H](OC(C)=O)[C@]5(CC)C=CCN6CC[C@]43[C@@H]65)C2)C1 (some centres not stated) ; field requested: response
Response: 6.03% (inactive)

Query: // next record CC12CCCCN1CCCc1c2[nH]c2ccccc12 (configuration not stated)
Response: 0.15% (inactive)

Query: Would you mind doing CC(=O)CSc1ncnc2c1cnn2-c1ccccc1 as well?
Response: -1.56% (inactive)

Query: Moving on to Cc1ccc(S(=O)(=O)NC(=O)Nc2cc(C)ccc2F)cc1
Response: -3.86% (inactive)

Query: What do you have for CC(=O)c1cccc2c(O)c(C3=Nc4ccccc4C3=O)[nH]c12 ?
Response: 0.43% (inactive)

Query: Same for CSCCC(NC(=O)OC(C)(C)C)C(=O)Oc1ccc2c(=O)c(-c3ccc4c(c3)OCCO4)coc2c1 (configuration not stated)
Response: -3.69% (inactive)

Query: Another molecule: C=CC1=C(C(=O)O)N2C(=O)C(NC(=O)Cc3ccccc3)C2SC1 (configuration not stated)
Response: 1.11% (inactive)

Query: Try this molecule too: CC(C)N1C(=O)/C(=C\c2nc3ccccc3c(=O)[nH]2)c2ccccc21
Response: -1.63% (inactive)

Query: Do the same for COc1cc(OC)cc(C(C)=O)c1 please
Response: -2.23% (inactive)

###

Form field: percent response of DMSO control (one value per entry).
# assay details: TOR pathway RTG branch CIT2 reporter changes – S. cerevisiae, GFP fusion, multiplex flow cytometry, primary screen (AID 1870);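 also: barcoded CIT2-GFP strain pooled with four other GFP strains with rapamycin as positive control; median GFP fluorescence per well over plate mean of DMSO wells so 100% = DMSO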
# conditions used: S. cerevisiae CIT2-GFP expression, 3 h, at 10 µM, stronger effect = higher value
Output spec: scalar in %, unitless text.

Recorded results for 5 molecules are shown here.
molecule=COc1ccccc1NC(=O)N1CCc2[nH]c3ccc(Cl)cc3c2C1 obs_value=102
molecule=O=C(NCc1ccc(N2CCCC2=O)cc1)c1cccc(Cl)c1 obs_value=111
molecule=N/C(=N\OC(=O)CCCOc1ccc(Cl)cc1Cl)c1ccccn1 obs_value=93.9
molecule=CC(C)=CCC/C(C)=C/CC/C(C)=N/O obs_value=91
molecule=CCOC(=O)c1cccc(P(C)(C)=O)c1 obs_value=114

Query: Find the recorded percent response of DMSO control belonging to O=C(O)C(O)c1ccccc1 (centres undefined) and report it.
Response: 105

Query: Another molecule to look at: Fc1ccccc1CNCCC(Cc1ccccc1)c1ccc2c(c1)OCO2 (centres undefined)
Response: 96

Query: Continue with COc1ccc(C(CC(=O)N2CCOCC2)C(C)C)cc1 (centres undefined)
Response: 101

Query: Try Cc1ccc(S(=O)(=O)Oc2ccccc2/C=N/N=C(N)N)cc1 next.
Response: 104

###

# assay details: AML differentiation inducers, ER-HoxA9 marrow cells – cell-based, GFP/MAC1 double positive, flow cytometry, validation set, primary screen (AID 588685);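 also: compound exposure lasts four days before antibody staining and flow analysis; 0% = DMSO wells and 100% = 5 µM fulvestrant positive control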
# conditions used: stronger effect = higher value, normalized: vehicle 0, fulvestrant 100
property: differentiation response (%)
Please reply with the bare figure in % and do not write the unit itself.

Worked set:
compound=CCNC(=O)c1c(N)sc2c1CCCCC2 unit_descriptor=% obs_value=7.2
compound="COc1ccc(C2CC(c3c(O)cc(C)oc3=O)=NCCS2)c(OC)c1 (stereo unspecified)" unit_descriptor=% obs_value=-4.64
compound=O=C(COc1cc(O)c2c(=O)c3ccccc3oc2c1)OCc1ccccc1 unit_descriptor=% obs_value=12.9
compound=CC1(C)O[C@@H]2C[C@H]3[C@@H]4C[C@H](F)C5=CC(=O)CC[C@]5(C)[C@H]4[C@@H](O)C[C@]3(C)[C@]2(C(=O)CO)O1 unit_descriptor=% obs_value=34.9
compound="CCOC(=O)c1ccc(N2C(=O)C(CC(=O)NC)N(CCc3ccc(OC)c(OC)c3)C2=S)cc1 (stereo unspecified)" unit_descriptor=% obs_value=-1.12

Query: Entry CCOc1cc(C=O)ccc1OCCSc1ccc(C)cc1 : reported differentiation response = ?
Response: -16.8

Query: # repeat for Cc1cnc(N)c2c(=O)oc3ccccc3c12
Response: -6.6

###

Entries and their GTP binding, percent of control
# measured on: GTPase HRas (Homo sapiens) (UniProt P01112)
# Sequence (P01112 whole entry, looked up): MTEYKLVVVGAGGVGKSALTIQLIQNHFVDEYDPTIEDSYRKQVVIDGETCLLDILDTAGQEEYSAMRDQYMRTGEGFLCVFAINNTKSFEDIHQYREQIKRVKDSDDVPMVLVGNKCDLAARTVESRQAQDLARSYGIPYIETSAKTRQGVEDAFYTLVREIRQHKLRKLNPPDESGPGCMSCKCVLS
# assay details: Ras wt fluorescent GTP loading blockade – biochemical, wildtype, multiplex bead flow cytometry, dose response (AID 1335)
# conditions used: bead-based flow cytometry, Bodipy-GTP binding to GST-Ras; at 100 µM (top of the series) unless noted
Value expressed in %; do not type the unit.

chemical_string=CC(=O)Nc1ccc(Nc2ccc3c4c(cc(=O)n3C)-c3ccccc3C(=O)c24)cc1 measured_on="GTPase HRas (Homo sapiens) (UniProt P01112)" obs_value=80.5
chemical_string=c1ccc(-c2onc3c2CCCC3)cc1 measured_on="GTPase HRas (Homo sapiens) (UniProt P01112)" obs_value=144
chemical_string=COc1cc2c(cc1OC)-c1cc(NC3CCCCCC3)nc(=O)n1CC2 measured_on="GTPase HRas (Homo sapiens) (UniProt P01112)" obs_value=69.8
chemical_string=O=C(C#Cc1ccc(F)cc1)c1ccc([N+](=O)[O-])cc1 measured_on="GTPase HRas (Homo sapiens) (UniProt P01112)" obs_value=142
chemical_string=Cc1cc(C(=O)NC(=S)Nc2cccc(C(=O)O)c2C)ccc1[N+](=O)[O-] measured_on="GTPase HRas (Homo sapiens) (UniProt P01112)" obs_value=85.8

Alright, here's another compound for you.
Query: What measured GTP binding, percent of control goes with O=S(=O)(Cc1ccccc1)N1CCc2ccccc21 ?
Response: 63.7

# credit: PubChem BioAssay
